B1: CPEB3 Ribozyme (parent)
chain: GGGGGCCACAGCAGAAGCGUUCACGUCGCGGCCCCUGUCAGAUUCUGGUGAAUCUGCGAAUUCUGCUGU

variants of: B1; experiment: self-cleavage, relative activity (ratio to wild type); higher = more cleavage; co-transcriptional
Is self-cleavage at least 0.3? Then y. If not, n.

These recorded examples may help you get a feel for the data.
GGGGGACACAGCAGAAGCGUUCACGUCGCGGCCCCUGUCAGAUUCUGGUGAAUCUGCGAACUCUGCUGU    n
GGGGGCCACAGCAGAAGCGGUCACGUCGCGGCCCCUGUCAGAUUCUGGGGAAUCUGCGAAUUCUGCUGU    n
GGCGGCAACAGCAGAAGCGUUCACGUCGCGGCCCCUGUCAGAUUCUGGUGAAUCUGCGAAUUCUGCUGU    n

Problem: For this variant, is measured self-cleavage 0.3 or higher? GGGGGCCACAGCAGAAGCGUUCACGUCGCGGCCACUGUCAGAUUCUGGUGGAUCUGCGAAUUCUGCUGU
Solution: y

Problem: Does the reported self-cleavage for GGGGGCCACAGCAGAAGUGUUCACGUCGCGGCCCCUGUCAGAUUCUCGUGAAUCUGCGAAUUCUGCUGU fall at or above the 0.3 mark?
Solution: y

Problem: Threshold query (self-cleavage >= 0.3) on GGGGGCCACAGCAGAAGGGUUCACGUCGCAGCCCCUGUCAGAUUCUGGUGAAUCUGCGAAUUCUGCUGU
Solution: n

Problem: Decide: self-cleavage of GGGGGCCACAGCAGAAGCGUCCACGUCGCGGCCCCUGUCAGAUUCUAGUGAAUCUGCGAAUUCUGCUGU >= 0.3?
Solution: y

Problem: In plain terms: is recorded self-cleavage at least 0.3 for GGGGGCCACAGCAGAAGCCUUCACGUCGCGGCCCCUGUCAGAUUCUGGUGAAUUUGCGAAUUCUGCUGU ?
Solution: n

Problem: Form field: self-cleavage at least 0.3? Entry: GGGGGCCACAGCAGAAGCGGUCACGCCGCGGCCCCUGUCAGAUUCUGGUGAAUCUGCGAAUUCUGCUGU
Solution: n

Problem: Is reported self-cleavage greater than or equal to 0.3 here: GGGGGCCCCUGCAGAAGCGUUCACGUCGCGGCCCCUGUCAGAUUCUGGUGAAUCUGCGAAUUCUGCUGU
Solution: y

Problem: Identify whether the reported self-cleavage of the following variant is 0.3 or greater: GGGGGCCACAGCAGAAGCGUUGACGUCGCGGCUCCUGUCAGAUUCUGGUGAAUCUGCGAAUUCUGCUGU
Solution: n

Problem: API: above_or_equal(metric=self-cleavage, cutoff=0.3) for item GGGGGCCACAGCAGAAGCGUUCACGUCGGGGCCCCUGUCAGAUUCUUGUGAAUCUGCGAAUUCUGCUGU
Solution: y

Problem: Check the entry GGGGGCCGCAGCAGAAGAGUUCACGUCGCGGCCCCUGUCAGAUUCUGGUGAAUCUGCGAAUUCUGCUGU : does self-cleavage equal or exceed 0.3?
Solution: n

Problem: Could you please find out whether GGGGGCCACAGCAGAAGCGUUCACGUCGCGGUCCCUGUCAGAUUGUGGUGAAUCUGCGAAUUCUGCUGU has self-cleavage that meets 0.3 or exceeds it?
Solution: y

Problem: Determine whether measured self-cleavage meets or exceeds 0.3 for GGGGGCCACAGCAGAAGCGUUCACGUCGCGGCCCCUGUCAGGUUCUGGUGAAUUUGCGAAUUCUGCUGU
Solution: y

Problem: Could you tell me if the measured self-cleavage of GGGGGCCACAGCAGAAGCGUUCACUUCGCAGCCCCUGUCAGAUUCUGGUGAAUCUGCGAAUUCUGCUGU reaches 0.3 or more?
Solution: n

Problem: Answer whether self-cleavage of GGGGGCCACAGCAGAAGCGUUCACGUCGCGGCCCCUGUCAGAUUCUGGUGAAGCUGCGAAUUCCGCUGU is greater than or equal to 0.3.
Solution: y

Problem: Is the recorded value of self-cleavage equal to or greater than 0.3 for this variant? GGGGGCCACAGAAGAAGCGUUCACGCCGCGGCCCCUGUCAGAUUCUGGUGAAUCUGCGAAUUCUGCUGU
Solution: y

Problem: Textbook exercise: given the entry GGGGGCCACAGCCGAAGCGUUCACGUCGCGGCCCCUGUCAGAUUCUGGUGAAUUUGCGAAUUCUGCUGU , state whether its self-cleavage is greater than or equal to 0.3.
Solution: y

Problem: API: above_or_equal(metric=self-cleavage, cutoff=0.3) for item GGGGGCCACAGCAGAAGCGUUCACGUCGCGGCCCCUGUCAGCUUCUGGUGAAUCUGAGAAUUCUGCUGU
Solution: y

Problem: Hello, I need to know if AGGGGCCACAGCAGAAGCGUUCACGUCGCGGCCCCUGUCAGAUUCUGGUGAAUCUGGGAAUUCUGCUGU has measured self-cleavage not below 0.3. Thanks!
Solution: n

Problem: Reported self-cleavage reaches at least 0.3 for GGGGGCCACAGCAGGAGCGUUCACGUCGCGGCCCCUGUCAGAUUCUAGUGAAUCUGCGAAUUCUGCUGU ?
Solution: y

Problem: Could you please find out whether GCGGGCCACAGCAGAUGCGUUCACGUCGCGGCCCCUGUCAGAUUCUGGUGAAUCUGCGAAUUCUGCUGU has self-cleavage that meets 0.3 or exceeds it?
Solution: n
